Reported IC50 (ug/ml), pseudovirus neutralization, TZM-bl assay is given for each of the following binders.
Tgt: JR-CSF (Y318A) pseudovirus Env (HIV-1) (UniProt P20871)
Run Description: cell-based or functional assay
Test Readout: IC50 (ug/ml), pseudovirus neutralization, TZM-bl assay

binder="1489_I13 (PG16) (antibody, V domains shown) VH: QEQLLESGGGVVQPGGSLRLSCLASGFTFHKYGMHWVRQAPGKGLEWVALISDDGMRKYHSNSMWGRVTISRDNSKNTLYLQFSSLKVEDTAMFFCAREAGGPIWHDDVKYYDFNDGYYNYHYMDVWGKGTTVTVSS VL: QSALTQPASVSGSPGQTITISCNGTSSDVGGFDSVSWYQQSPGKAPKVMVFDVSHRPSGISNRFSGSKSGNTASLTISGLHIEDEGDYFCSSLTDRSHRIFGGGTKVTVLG" obs_value="> 1 µg/mL"
binder="1469_M23 (PG16) (antibody, V domains shown) VH: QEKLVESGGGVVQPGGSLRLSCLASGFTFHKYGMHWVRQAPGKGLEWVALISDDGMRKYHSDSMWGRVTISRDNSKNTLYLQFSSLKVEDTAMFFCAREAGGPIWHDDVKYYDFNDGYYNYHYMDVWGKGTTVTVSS VL: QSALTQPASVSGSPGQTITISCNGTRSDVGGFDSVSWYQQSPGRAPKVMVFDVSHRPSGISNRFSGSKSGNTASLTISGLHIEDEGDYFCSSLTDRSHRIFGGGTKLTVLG" obs_value="> 1 µg/mL"
binder="1456_A12 (PG16) (antibody, V domains shown) VH: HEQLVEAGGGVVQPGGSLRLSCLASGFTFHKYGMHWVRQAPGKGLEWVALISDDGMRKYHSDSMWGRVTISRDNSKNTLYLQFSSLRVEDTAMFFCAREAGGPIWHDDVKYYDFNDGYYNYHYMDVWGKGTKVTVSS VL: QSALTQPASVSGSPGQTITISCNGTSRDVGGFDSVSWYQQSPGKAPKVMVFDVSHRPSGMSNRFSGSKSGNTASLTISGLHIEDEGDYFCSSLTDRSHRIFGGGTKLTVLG" obs_value="> 1 µg/mL"
binder="1503_H05 (PG16) (antibody, V domains shown) VH: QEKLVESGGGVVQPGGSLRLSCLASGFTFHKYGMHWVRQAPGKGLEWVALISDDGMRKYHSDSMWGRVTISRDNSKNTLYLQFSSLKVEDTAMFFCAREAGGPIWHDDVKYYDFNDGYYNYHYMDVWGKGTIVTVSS VL: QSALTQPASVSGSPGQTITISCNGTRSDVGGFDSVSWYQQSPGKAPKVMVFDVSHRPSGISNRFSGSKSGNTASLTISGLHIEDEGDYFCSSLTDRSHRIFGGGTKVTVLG" obs_value="> 1 µg/mL"
